test system: KB epidermal carcinoma; assay: MTT cytotoxicity assay, KB; format: cell-based, human; details: KB cell line, 72 h, mean ± s.d., three replicates

{"columns": ["compound", "IC50"],
 "data": [
  ["COc1c(O)cc2oc3cc(O)c(CC=C(C)C)c(O)c3c(=O)c2c1CC=C(C)C [α-mangostin, reference compound]", "15.4 µM"]
]}

###

tested on: MCF-7 breast cancer; assay: MTT cytotoxicity assay, MCF-7; type: cell-based, human; settings: MCF-7 cell line, 72 h, mean ± s.d., three replicates

{"columns": ["compound", "display-unit", "IC50"],
 "data": [
  ["COc1c(O)cc2oc3cc(O)c(CC=C(C)C)c(O)c3c(=O)c2c1CC=C(C)C [α-mangostin, reference compound]", "µM", 81.9]
]}
